experimentSummary: self-splicing fitness, log relative to wild type (ln ratio); higher = more splicing; Tetrahymena group I intron in knt gene, E. coli kanamycin selection, DiMSum; sequences stand for … in CUCUCU…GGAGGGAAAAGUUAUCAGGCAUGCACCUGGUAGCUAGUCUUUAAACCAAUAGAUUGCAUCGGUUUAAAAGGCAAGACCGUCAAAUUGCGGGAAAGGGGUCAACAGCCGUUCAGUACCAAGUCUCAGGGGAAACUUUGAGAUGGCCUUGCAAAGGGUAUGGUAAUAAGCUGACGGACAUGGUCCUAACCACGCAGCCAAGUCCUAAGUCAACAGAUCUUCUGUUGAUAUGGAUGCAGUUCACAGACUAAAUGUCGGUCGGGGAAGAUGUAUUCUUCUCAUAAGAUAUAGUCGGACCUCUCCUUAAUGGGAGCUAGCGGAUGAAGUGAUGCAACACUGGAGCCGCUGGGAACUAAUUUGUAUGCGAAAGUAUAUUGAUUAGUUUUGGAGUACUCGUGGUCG;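 note: selection with 25 µg/mL kanamycin versus none on LB agar overnight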
setupConditions: 30 °C
Readings of self-splicing fitness (ln) for the listed sequences
observedProperty: self-splicing fitness (ln)

                     seq  resultvalue
 0  GUUAAGCAAUAUUACGGGUG        -3.29
 1  CACUAGCAAUAUUACGUACG       -0.239
 2  GUUGAGCAAUAUUACGCUUU        -3.95
 3  CGGAAGCAAUAUUACGUAGC        -2.64
 4  UUUUAGCAAUAUUACGUUAG        -1.37
 5  GGACAGCAAUAUUACGCCAG        -2.17
 6  ACGCAGCAAUAUUACGAACA        -1.75
 7  AAUAAGCAAUAUUACGCAUG        -1.16
 8  AUCUAGCAAUAUUACGACAC        -1.02
 9  GAAUAGCAAUAUUACGGACC     -0.00208
10  GCCCAGCAAUAUUACGCGAC         -2.9
11  CUUGAGCAAUAUUACGAACG       -0.921
12  CACCAGCAAUAUUACGAGUU        -2.42
13  CCAAAGCAAUAUUACGAUAU        -4.16
14  GACAAGCAAUAUUACGUGGC         -4.6
15  GUCAAGCAAUAUUACGUCGC        -3.74

###

experimentSummary: self-splicing fitness, log relative to wild type (ln ratio); higher = more splicing; Tetrahymena group I intron in knt gene, E. coli kanamycin selection, DiMSum; sequences stand for … in CUCUCU…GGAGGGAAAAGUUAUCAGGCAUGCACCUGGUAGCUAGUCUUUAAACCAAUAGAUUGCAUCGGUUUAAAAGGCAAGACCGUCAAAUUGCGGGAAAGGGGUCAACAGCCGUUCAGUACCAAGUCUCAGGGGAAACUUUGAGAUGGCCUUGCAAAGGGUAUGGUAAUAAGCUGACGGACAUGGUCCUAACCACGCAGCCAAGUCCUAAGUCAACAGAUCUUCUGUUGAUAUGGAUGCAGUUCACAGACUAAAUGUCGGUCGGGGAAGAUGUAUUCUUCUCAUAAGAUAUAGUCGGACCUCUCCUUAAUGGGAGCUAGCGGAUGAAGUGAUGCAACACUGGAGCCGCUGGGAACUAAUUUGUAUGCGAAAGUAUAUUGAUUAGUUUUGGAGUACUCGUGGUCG
setupConditions: 37 °C
Kind request: treat -2 as inclusive, so self-splicing fitness (ln) at -2 or higher is True, anything lower is False.

>>> print(df.to_string())
                     seq  labelclass
 0  ACCAAGCAAUAUUACGUAAC       False
 1  GUGCAGCAAUAUUACGCUCG        True
 2  AGCCAGCAAUAUUACGCUCU        True
 3  CCAAAGCAAUAUUACGAGUU       False
 4  CCCCAGCAAUAUUACGCGUG       False
 5  CACGAGCAAUAUUACGAUCA       False
 6  GGAGAGCAAUAUUACGGUGU       False
 7  CUCUAGCAAUAUUACGGUGA        True
 8  UCUGAGCAAUAUUACGUCAU       False
 9  GGAGAGCAAUAUUACGUCUU       False
10  UAUGAGCAAUAUUACGCCCG        True
11  AUCUAGCAAUAUUACGUCCA        True
12  UAUUAGCAAUAUUACGCCUG        True
13  UAUGAGCAAUAUUACGUACA        True
14  GGUUAGCAAUAUUACGGGCC        True
15  AUAGAGCAAUAUUACGCGCU        True

###

experimentSummary: self-splicing fitness, log relative to wild type (ln ratio); higher = more splicing; Tetrahymena group I intron in knt gene, E. coli kanamycin selection, DiMSum; sequences stand for … in CUCUCU…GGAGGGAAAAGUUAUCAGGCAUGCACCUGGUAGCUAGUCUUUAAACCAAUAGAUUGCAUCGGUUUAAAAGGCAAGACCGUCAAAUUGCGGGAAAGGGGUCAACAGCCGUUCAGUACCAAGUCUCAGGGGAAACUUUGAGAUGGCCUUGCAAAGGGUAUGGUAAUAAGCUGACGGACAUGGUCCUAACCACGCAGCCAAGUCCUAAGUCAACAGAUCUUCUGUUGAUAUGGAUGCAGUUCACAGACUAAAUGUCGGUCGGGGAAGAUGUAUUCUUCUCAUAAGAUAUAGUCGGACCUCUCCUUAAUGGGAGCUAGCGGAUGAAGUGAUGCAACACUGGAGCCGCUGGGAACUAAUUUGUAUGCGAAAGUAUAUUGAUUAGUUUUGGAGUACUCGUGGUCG
setupConditions: 30 °C
Kind request: treat -2 as inclusive, so self-splicing fitness (ln) at -2 or higher is TRUE, anything lower is FALSE.

                     seq  labelclass
 0  CGCCAGCAAUAUUACGGAGU       FALSE
 1  GGUCAGCAAUAUUACGAUUU        TRUE
 2  GCACAGCAAUAUUACGGACU        TRUE
 3  UAAAAGCAAUAUUACGGCAA        TRUE
 4  GAGCAGCAAUAUUACGCGAC       FALSE
 5  CCUUAGCAAUAUUACGGAAU       FALSE
 6  GCACAGCAAUAUUACGACUC        TRUE
 7  AGCUAGCAAUAUUACGUUCC        TRUE
 8  CGACAGCAAUAUUACGAUAA       FALSE
 9  AAGCAGCAAUAUUACGUUCU        TRUE
10  CUUUAGCAAUAUUACGAAGG        TRUE
11  CUUAAGCAAUAUUACGAUCU       FALSE
12  GUAUAGCAAUAUUACGCCUC        TRUE
13  UCUUAGCAAUAUUACGCAGA        TRUE
14  UCAAAGCAAUAUUACGAUCA        TRUE
15  GGCGAGCAAUAUUACGGUCU        TRUE

###

experimentSummary: self-splicing fitness, log relative to wild type (ln ratio); higher = more splicing; Tetrahymena group I intron in knt gene, E. coli kanamycin selection, DiMSum; sequences stand for … in CUCUCU…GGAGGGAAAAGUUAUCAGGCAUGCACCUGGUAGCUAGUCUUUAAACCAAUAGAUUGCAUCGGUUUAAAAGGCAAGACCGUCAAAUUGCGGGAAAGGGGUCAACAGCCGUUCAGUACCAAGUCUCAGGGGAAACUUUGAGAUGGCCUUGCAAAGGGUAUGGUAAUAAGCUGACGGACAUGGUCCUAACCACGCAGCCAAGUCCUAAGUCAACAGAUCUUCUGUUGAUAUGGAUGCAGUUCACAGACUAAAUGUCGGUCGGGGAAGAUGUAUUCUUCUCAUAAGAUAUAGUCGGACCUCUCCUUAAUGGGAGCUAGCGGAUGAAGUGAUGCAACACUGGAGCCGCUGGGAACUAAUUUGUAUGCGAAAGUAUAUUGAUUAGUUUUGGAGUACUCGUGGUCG
setupConditions: 30 °C
Kind request: treat -3 as inclusive, so self-splicing fitness (ln) at -3 or higher is Yes, anything lower is No.

In [3]: df
Out[3]:
                     seq  labelclass
 0  UUCAAGCAAUAUUACGGCGU         Yes
 1  GAUAAGCAAUAUUACGGAAC          No
 2  CUGCAGCAAUAUUACGUGGC          No
 3  UGGAAGCAAUAUUACGUACC         Yes
 4  AGUGAGCAAUAUUACGAUCG         Yes
 5  CAACAGCAAUAUUACGGGAA         Yes
 6  UAUUAGCAAUAUUACGCCUG         Yes
 7  GCUUAGCAAUAUUACGUUAU         Yes
 8  UCCUAGCAAUAUUACGGGGG          No
 9  AACCAGCAAUAUUACGUGUC          No
10  GAUAAGCAAUAUUACGUUGA         Yes
11  AGCAAGCAAUAUUACGAUUU         Yes
12  UUCAAGCAAUAUUACGAGUA         Yes
13  GAUCAGCAAUAUUACGAAGU         Yes
14  UGAAAGCAAUAUUACGAAUU         Yes
15  AUUCAGCAAUAUUACGGUGA         Yes
16  UUACAGCAAUAUUACGUAGU         Yes
17  CCAUAGCAAUAUUACGCGGU          No
18  ACUUAGCAAUAUUACGCUUA         Yes
19  AACAAGCAAUAUUACGUUGG          No
20  GUAUAGCAAUAUUACGUAAA         Yes
21  UCCAAGCAAUAUUACGAACG         Yes
22  AGAAAGCAAUAUUACGCAAG         Yes
23  CAUGAGCAAUAUUACGUCAA          No
24  GCCCAGCAAUAUUACGGACC          No
25  UUGCAGCAAUAUUACGGGGC          No
26  GUUCAGCAAUAUUACGAAUG         Yes
27  UUUCAGCAAUAUUACGAAAG          No
28  GGCCAGCAAUAUUACGAACU         Yes
29  UACUAGCAAUAUUACGUAAU         Yes
30  CAGAAGCAAUAUUACGGUCA         Yes
31  UAGAAGCAAUAUUACGGAAG         Yes
32  ACACAGCAAUAUUACGACUG         Yes
33  AGCAAGCAAUAUUACGGUUG          No
34  GAUCAGCAAUAUUACGUGAU          No
35  CGGUAGCAAUAUUACGAGGU          No
36  GACCAGCAAUAUUACGUGUC          No
37  UAGGAGCAAUAUUACGUUAU          No
38  GAGCAGCAAUAUUACGGCAA         Yes
39  GUACAGCAAUAUUACGCACU         Yes
40  AGGAAGCAAUAUUACGGCAA         Yes
41  GGGGAGCAAUAUUACGCGUA         Yes
42  GCUAAGCAAUAUUACGAAUG         Yes
43  ACCUAGCAAUAUUACGAACC         Yes
44  CUAGAGCAAUAUUACGUCGA          No
45  GAGGAGCAAUAUUACGAGUG         Yes
46  AACAAGCAAUAUUACGGAUC         Yes
47  AGAAAGCAAUAUUACGGUCG         Yes
48  GUUCAGCAAUAUUACGCUUC         Yes
49  GUACAGCAAUAUUACGAUCG         Yes
50  CAGCAGCAAUAUUACGUCAU          No
51  AUCUAGCAAUAUUACGUUUA         Yes
52  UAUGAGCAAUAUUACGUACA         Yes
53  UAUGAGCAAUAUUACGUACG         Yes
54  AUGUAGCAAUAUUACGCGUG         Yes
55  GUAUAGCAAUAUUACGCAAG          No
56  ACUCAGCAAUAUUACGCACA         Yes
57  AUCUAGCAAUAUUACGAACG         Yes
58  UGCUAGCAAUAUUACGCGCC         Yes
59  UGCAAGCAAUAUUACGCGCG         Yes
60  UAAAAGCAAUAUUACGAUUC         Yes
61  GUCUAGCAAUAUUACGAUGU         Yes
62  CUCUAGCAAUAUUACGGCAC         Yes
63  CUGUAGCAAUAUUACGCCUU          No
64  UUUGAGCAAUAUUACGUAUU          No
